Taken from PubChem BioAssay (NCI).

Quick reference for TGI among some molecules
Test system: 786-0 renal
protocol-details: NCI tumour cell line growth inhibition, 48 h

Please review the entries below; each comes with its answer.
Task: Report TGI for `COc1cc(COC(=O)N(C)[C@@H](Cc2ccccc2)C(=O)O)c([N+](=O)[O-])cc1OC` please.
Result: > 100 µM

Task: Return reported TGI; argument: `COc1cc(C(=O)Nc2ccc(-c3nc4ccccc4[nH]3)cc2)cc(OC)c1OC`
Result: 28.6 µM

Task: Given the entry `COC(=O)c1sc(=S)c2sc(C(=O)OC)c(C(=O)OC)c2c1C(=O)OC` , report its measured TGI.
Result: > 100 µM

Task: Quick one: TGI of COc1ccc(C=C2C(C)=NN(c3cccc(Cl)c3)C23C(Cl)C(=O)N3c2nc3ccccc3s2)cc1 (configuration not stated) ?
Result: 29.4 µM

Task: Given Nc1c([N+](=O)[O-])ncn1C1OC(CO)C(O)C1O (configuration not stated) , state its recorded TGI.
Result: > 100 µM

Next item in the queue.
Task: Give the measured TGI of `Cc1ccc(-n2cc(/C(N)=N/O)c3ccccc3c2=O)cc1` .
Result: > 100 µM

----------
Listing of entries alongside the reported GI50.
Tested on: SK-MEL-2 melanoma
protocol-details: NCI tumour cell line growth inhibition, 48 h

Task: Find the measured GI50: item `OCCN1CCCN(CCCN2c3ccccc3Sc3ccc(C(F)(F)F)cc32)CC1` , target or system SK-MEL-2 melanoma.
Result: 2.07 µM

Task: Kindly state the measured GI50 obtained for `CNc1ccc(CSc2ccc(C)cc2)cc1` with SK-MEL-2 melanoma.
Result: 38.5 µM

Task: For the record `c1ccc(-c2nc3ccccc3[nH]2)c(OCCCCCOc2ccccc2-c2nc3ccccc3[nH]2)c1` , what value of GI50 is listed for SK-MEL-2 melanoma?
Result: 8.96 µM

Turning now to a further compound:
Task: Lab note: need GI50 with SK-MEL-2 melanoma for entry COc1cc2c(cc1OC)C(Sc1ccc(Cl)cc1)c1c(nc(N)c(C#N)c1N)O2 (centres undefined) , please look it up.
Result: 1.2 µM

----------
Tested on: M14 melanoma
protocol-details: NCI tumour cell line growth inhibition, 48 h; in the data active = GI50 below about 0.43 µM; inactive = the rest
Respond with a class label; see active, inactive

Task: What is the recorded call for this molecule in the test? `O=[N+]([O-])/C(=C/C=C/c1ccccc1)c1ccccc1`
Result: inactive

Task: Could you please tell me the result logged for CC(=O)CCN1CC2CN=NC2(C#N)C1 (centres undefined) in this assay?
Result: inactive

Task: In this assay, the call recorded for `O=C(NCCNC1=CC(=O)c2nc3ccccc3c3ccnc1c23)c1cnccn1` was what?
Result: inactive

Task: // param item: `COc1cc(C(=O)/C=C/c2c(C)n([O-])c3ccc(Cl)cc3[n+]2=O)cc(OC)c1OC` ; yields the recorded call
Result: inactive

Next item in the queue.
Task: Lab log entry: `COC(=O)c1sc(=S)c2sc(C(=O)OC)c(C(=O)OC)c2c1C(=O)OC` — outcome as called in the assay?
Result: inactive

----------
System: KM12 colon
protocol-details: NCI tumour cell line growth inhibition, 48 h
This listing pairs compounds with measured TGI.

Task: API: value(readout=TGI, system=KM12 colon) for record `CN(C)CCC(/C=C/c1ccccc1)=N\Nc1c(F)c(F)c(F)c(F)c1F`
Result: > 100 µM

More entries:
Task: Form entry - test system: KM12 colon; read-out: TGI; compound: `CC(=O)OCCc1cc2ccccc2oc1=O`
Result: > 100 µM

Task: Provide the documented TGI with KM12 colon as the system for CCOC(=O)c1c(-c2ccc(Cl)cc2)c(C#N)c(=S)n(C2OC(COC(C)=O)C(OC(C)=O)C(OC(C)=O)C2OC(C)=O)c1C (stereo not given)
Result: > 100 µM

Task: Identify the measured TGI of `COC(=O)c1sc(=S)c2sc(C(=O)OC)c(C(=O)OC)c2c1C(=O)OC` for KM12 colon.
Result: > 100 µM

Task: Lookup: TGI / KM12 colon / O=C(c1ccccc1)C1C(c2ccccc2[N+](=O)[O-])N1C1CCCCC1 (stereo not given)
Result: 25.2 µM
